Each recorded value in this set is attributed to patent EP4786467A1.

- Target Entity: recombinant human 5-HT1A receptor (Homo sapiens)
- Construct: expressed in transfected cells
- Sequence (P08908 whole entry): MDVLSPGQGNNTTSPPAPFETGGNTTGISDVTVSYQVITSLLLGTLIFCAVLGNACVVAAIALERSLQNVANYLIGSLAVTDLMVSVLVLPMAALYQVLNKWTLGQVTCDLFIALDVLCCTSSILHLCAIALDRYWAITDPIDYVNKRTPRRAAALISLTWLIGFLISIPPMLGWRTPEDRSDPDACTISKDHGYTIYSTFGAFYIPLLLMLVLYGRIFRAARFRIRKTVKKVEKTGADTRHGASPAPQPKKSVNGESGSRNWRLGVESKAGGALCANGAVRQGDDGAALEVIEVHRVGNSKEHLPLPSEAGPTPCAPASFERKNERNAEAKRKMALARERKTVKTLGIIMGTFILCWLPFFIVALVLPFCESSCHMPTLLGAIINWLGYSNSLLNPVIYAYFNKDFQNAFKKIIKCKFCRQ
- Assay: 5-HT1A Receptor Agonist Activity Assay (LANCE cAMP, inhibition of cAMP production)
- Format: cell-based
- Experimental Conditions: CHO-K1 cells expressing the recombinant human 5-HT1A receptor, read-out: 5-HT1A agonistic activity (EC50)
Recorded Metric: EC50

Request: If you can, please state the reported EC50 value of O=c1ccc2ccc(CCN3CCN(c4cc(F)cc5ccsc45)CC3)cc2[nH]1 .
Response: 0.5 nM

Request: Requested read-out: EC50. Entry: O=C1CCc2ccc(CCN3CCN(c4c(F)ccc5ccsc45)CC3)cc2N1
Response: 1 nM

Request: Consider the molecule O=C1CCc2ccc(CCN3CCN(c4ccc(F)c5sccc45)CC3)cc2N1 and give its measured EC50.
Response: 0.8 nM

Request: Endpoint output: EC50 of O=c1ccc2ccc(CCN3CCN(c4cc(F)cc5ccoc45)CC3)cc2[nH]1 . Value?
Response: 1.3 nM

Request: Which EC50 is listed for O=C1CCc2ccc(CCN3CCN(c4cc(F)cc5sccc45)CC3)cc2N1 [Reference compound, reference compound] ?
Response: 1 nM

Request: Would you mind telling me what EC50 value was observed for O=C1CCc2ccc(CCN3CCN(c4cc(F)cc5occc45)CC3)cc2N1 ?
Response: 0.5 nM

Request: Item O=C1CCc2ccc(CCN3CCN(c4cc(F)cc5c4OCC5)CC3)cc2N1 has what recorded EC50?
Response: 1.5 nM

Request: Item O=C1CCc2ccc(CCN3CCN(c4cc(F)cc5ccsc45)CC3)cc2N1 has what recorded EC50?
Response: 0.5 nM

Request: So what does the record say about EC50 for [2H]C1([2H])CC(=O)Nc2cc(CCN3CCN(c4cc(F)cc5occc45)CC3)ccc21 ?
Response: 0.7 nM

----------
- Assay: Rat Pharmacokinetic Experiment
- Format: in vivo, male SD rats
- Experimental Conditions: male, SD; rat plasma; oral (po) dose 3 mg/kg
Recorded Metric: Cmax (ng/mL)
Report the figure in ng/mL without appending any unit label.

Request: For O=C1CCc2ccc(CCN3CCN(c4cc(F)cc5sccc45)CC3)cc2N1 [Reference compound, reference compound] , what is its reported Cmax?
Response: 280

----------
- Assay: Rat Pharmacokinetic Experiment
- Type: in vivo, male SD rats
- Experimental Conditions: male, SD, plasma; rat; iv 1 mg/kg, po 3 mg/kg
Recorded Metric: bioavailability (%)
Give a bare numeral; the unit % is implied.

Request: Bench note: what bioavailability did O=C1CCc2ccc(CCN3CCN(c4cc(F)cc5sccc45)CC3)cc2N1 [Reference compound, reference compound] show?
Response: 43

----------
- Assay: Rat Pharmacokinetic Experiment
- Assay type: in vivo, male SD rats
- Experimental Conditions: male, SD; rat plasma; oral (po) dose 3 mg/kg
Recorded Metric: AUC(0-t) (ng·h/mL)
Just the number in ng·h/mL, nothing appended.

Request: Requested field: AUC(0-t). Item: O=C1CCc2ccc(CCN3CCN(c4cc(F)cc5sccc45)CC3)cc2N1 [Reference compound, reference compound]
Response: 1560

----------
- Assay: Rat Pharmacokinetic Experiment
- Format: in vivo, male SD rats
- Experimental Conditions: in vivo; rat plasma; oral (po) dose 3 mg/kg
Recorded Metric: AUC(0-t) (ng·h/mL)
Please respond with the number in ng·h/mL and leave the unit unwritten.

Request: Any idea what its AUC(0-t) is? The compound is O=C1CCc2ccc(CCN3CCN(c4cc(F)cc5c4CCO5)CC3)cc2N1
Response: 5320
